Provenance of the data: patent US7772221B2

target: BACE1 enzyme (Homo sapiens); construct: endogenous in cells; washed 48,000 x g membrane pellet / cell homogenate; test: Radioligand displacement assay with a radiolabeled BACE inhibitor; settings: HEK293-9B.A1 cell homogenate overexpressing BACE1, 1 nM radioligand, pH 5.0, 1.5 hr at 25° C.; read-out: Activity Rating (activity based on IC50 values)
pIC50: −log10 of the molar value.
measurement-name: pIC50

molecule	pIC50
COc1ccc2c(c1)[C@@H]1C[C@H]2OCC=CC[C@H](N(C)C(=O)C(C)CC(F)(F)F)C(=O)N[C@@H](Cc2cc(F)cc(F)c2)[C@H](O)CN1 (single isomer, unassigned; diastereomer a)	> 8.00

// query Please give the measured pIC50 for this molecule: COc1ccc2c(c1)[C@@H]1C[C@H]2NCCCC[C@H](N(C)S(=O)(=O)CCC(F)(F)F)C(=O)N[C@@H](Cc2ccccc2)[C@H](O)CN1 (single isomer, unassigned)
// result 6.30 to 8.00

// query Need pIC50 of CCCCCS(=O)(=O)N(C)[C@H]1CC=CCO[C@@H]2Cc3ccc(OC)cc3[C@H]2NC[C@@H](O)[C@H](Cc2ccccc2)NC1=O (racemic) , thanks.
// result < 6.30

###

The entries below come with measured pIC50 values attached.
target: BACE1 enzyme (Homo sapiens, UniProt P56817); construct: endogenous in cells; washed 48,000 x g membrane pellet / cell homogenate; assay: Radioligand displacement assay with a radiolabeled BACE inhibitor; details: HEK293-9B.A1 cell homogenate overexpressing BACE1, 1 nM radioligand, pH 5.0, 1.5 hr at 25° C.; read-out: Activity Rating (activity based on IC50 values)
Sequence (P56817 46-501): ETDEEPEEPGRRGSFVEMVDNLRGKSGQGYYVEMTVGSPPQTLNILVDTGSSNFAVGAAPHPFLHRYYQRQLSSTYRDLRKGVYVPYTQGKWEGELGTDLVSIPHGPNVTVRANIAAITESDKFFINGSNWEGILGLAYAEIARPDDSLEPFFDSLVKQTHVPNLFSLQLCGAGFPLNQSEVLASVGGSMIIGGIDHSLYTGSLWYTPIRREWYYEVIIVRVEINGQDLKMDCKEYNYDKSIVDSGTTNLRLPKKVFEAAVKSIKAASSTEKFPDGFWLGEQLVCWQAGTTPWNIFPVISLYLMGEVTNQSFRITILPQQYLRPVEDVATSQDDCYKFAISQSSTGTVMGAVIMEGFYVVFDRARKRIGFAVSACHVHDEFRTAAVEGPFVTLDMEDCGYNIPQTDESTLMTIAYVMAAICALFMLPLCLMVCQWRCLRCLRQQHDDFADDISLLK
pIC50: −log10 of the molar value.

compound	pIC50
CC(C)CCc1ccc2c(c1)[C@@H]1C[C@H]2OCC=CCCCC(=O)N[C@@H](Cc2cc(F)cc(F)c2)[C@H](O)CN1	6.30 to 8.00
CC(C)(C)OC(=O)N1CC2CN(c3ccc4c(c3)[C@@H]3C[C@H]4OCC=CCCCC(=O)N[C@@H](Cc4cc(F)cc(F)c4)[C@H](O)CN3)CC2C1 (stereo partly drawn)	6.30 to 8.00
O=C1CCCC=CCO[C@@H]2C[C@H](NC[C@@H](O)[C@H](Cc3cc(F)cc(F)c3)N1)c1cc(-c3cc(C(F)(F)F)cc(C(F)(F)F)c3)ccc12	< 6.30
CCCC[C@H]1CC=CCO[C@@H]2C[C@H](NC[C@@H](O)[C@H](Cc3cc(F)cc(F)c3)NC1=O)c1cc(OC)ccc12	< 6.30
CCCC[C@H](C)C(=O)N(C)[C@H]1CC=CCO[C@H]2CC[C@H](C2)NC[C@@H](O)[C@H](Cc2cc(F)cc(F)c2)NC1=O (racemic)	6.30 to 8.00

Note: attention shifts to another entry.
// query Give recorded pIC50 with BACE1 enzyme (Homo sapiens, UniProt P56817) for the following compound: "CCCC[C@H](C)C(=O)N(C)[C@H]1CC=CCOC[C@@H](c2ccccc2)NC[C@@H](O)[C@H](Cc2cc(F)cc(F)c2)NC1=O"
// result < 6.30

###

List of IC50 values.
biological target: BACE1 enzyme (Homo sapiens, UniProt P56817); construct: endogenous in cells; washed 48,000 x g membrane pellet / cell homogenate; test: Radioligand displacement assay with a radiolabeled BACE inhibitor; conditions: HEK293-9B.A1 cell homogenate overexpressing BACE1, 1 nM radioligand, pH 5.0, 1.5 hr at 25° C.; read-out: Activity Rating (activity based on IC50 values)

Look over these answered cases.
In [3]: df
Out[3]:
                                   molecule  measurement_name        result
0  CCOc1ccsc1C(=O)N(C)[C@H]1CC=CCO[C@@H]2C[C@H](NC[C@@H](O)[C@H](Cc3ccccc3)NC1=O)c1cc(OC)ccc12              IC50  10 to 500 nM
1  CC(C)C[C@@H]1COCC=CCC[C@H](N(C)S(=O)(=O)CCC(F)(F)F)C(=O)N[C@@H](Cc2cc(F)cc(F)c2)[C@H](O)CN1              IC50      > 500 nM

--- query ---
// query Fill in: IC50 of CCCC(CCC)C(=O)N(C)[C@H]1CC=CCOCCC(c2cccc(OC)c2)NC[C@@H](O)[C@H](Cc2ccccc2)NC1=O (stereo partly drawn) is ___
// result > 500 nM
